Values were extracted from PubChem BioAssay (NCI).

assay: NCI Yeast Anticancer Drug Screen. Data for the mlh1 strain (AID 171);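 note: 0% = growth of vehicle-treated control cultures of the same strain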; details: S. cerevisiae mlh1 strain growth inhibition; at 100.0 µM; active compounds read high
This is part of a sample that, as a whole, favours compounds with a hit. Of some 79,000 tested, about 15% had one in any assay.
reported property: growth inhibition (%)
Report the figure in % without appending any unit label.

// known answers, use as guide
CCOC(=S)SSSC(=S)OCC
99
CCCCCCCCCCCNC=O
98

Task: Sample O=C(NOC(=O)c1ccc([N+](=O)[O-])cc1)c1ccc(Cl)cc1 — what was its growth inhibition?
Output: 96

Task: What do you have for O=C1c2ccccc2-c2cc3ccccc3c(=O)n21 ?
Output: 63

Task: COc1ccccc1/C=C\C(=O)C1COCN1 (stereo unspecified) ?
Output: 99

Task: Then this molecule: CC(C)(N=Nc1ccc(Cl)cc1)[N+](=O)[O-]
Output: 99

Task: Also O=C(CCCN1CCC(Nc2ccc(F)cc2)(c2nnnn2C2CCCCC2)CC1)c1ccc(F)cc1 ?
Output: 98

Task: Now the molecule CN(C)/C(=N/C(=S)Nc1ccccc1)SCc1ccccc1
Output: 20

Task: Do the same for CCC1(O)C(=O)OCc2c1cc1n(c2=O)Cc2cc3c(N)cccc3nc2-1 (stereo unspecified) please
Output: -44

Task: Next: O=C(O)CNC(c1ccccc1)(c1ccccc1)c1ccccc1
Output: 97

Task: Next up: CCO/C=C1\SC(=S)N(c2ccc(OCC)cc2)C1=O
Output: -10

Task: And then C=CCNC1=C2C[C@@H](C)C[C@H](OC)[C@H](O)[C@@H](C)/C=C(\C)[C@H](OC(N)=O)[C@@H](OC)/C=C\C=C(/C)C(=O)NC(=CC1=O)C2=O , what is it?
Output: 95

Task: Can you check CNCC(C)CNC next?
Output: -30

Task: // next record O=C1CCC(Cc2ccccc2)CN1 (stereo unspecified)
Output: 90

Task: Can you handle O=P(C(=S)Nc1c(Cl)cccc1Cl)(c1ccccc1)c1ccccc1 next?
Output: 95

Task: Also CC1(C)CC(=O)C(/C=N/c2nc(-c3ccc(Br)cc3)cs2)=C(O)C1 , if possible.
Output: 98

Task: Likewise for O=[N+]([O-])c1ccc2nc(=S)[nH]n2c1 ?
Output: 26

----------
experiment: NCI Yeast Anticancer Drug Screen. Data for the mec2-1 strain (AID 157); details: S. cerevisiae mec2-1 strain, at 5.0 µM (retest, dose inferred, filed as 0.5), active compounds read high
About 79,000 compounds went through this panel and 15% of them were active in at least one assay; those are over-represented in the sample as a whole.
growth inhibition values, listed per item
Give the quantity in %, number only.

Completed entries (count: 3):
O=C(NNc1ccccc1)C(CCCCNS(=O)(=O)Cc1ccccc1)NS(=O)(=O)Cc1ccccc1 (stereo not drawn)
5
O=C1c2ccccc2C(=O)c2c(O)c(NCCNCCO)cc(O)c21
23
CCOC(=O)/C(=C\c1cccc(C)c1)C(C)=O
-5

Task: Give its growth inhibition value. Item: Cc1cc(C)c2[s+]snc2c1
Output: -6

Task: Here is the next compound: O=c1[nH]c2c([N+](=O)[O-])cccc2c2ccccc12
Output: 4

Task: O=Cc1ccccc1C=O ?
Output: -8

Task: Repeat for the following compound: O=S(=O)(c1ccccc1)N1CN2CN(C1)CN(S(=O)(=O)c1ccccc1)C2
Output: 26

Task: Entry to check: CCOc1ccc(N)c(S)c1
Output: -1
